- test.system: Aldo-keto reductase family 1 member C3 (Homo sapiens)
- Sequence (P42330 whole entry): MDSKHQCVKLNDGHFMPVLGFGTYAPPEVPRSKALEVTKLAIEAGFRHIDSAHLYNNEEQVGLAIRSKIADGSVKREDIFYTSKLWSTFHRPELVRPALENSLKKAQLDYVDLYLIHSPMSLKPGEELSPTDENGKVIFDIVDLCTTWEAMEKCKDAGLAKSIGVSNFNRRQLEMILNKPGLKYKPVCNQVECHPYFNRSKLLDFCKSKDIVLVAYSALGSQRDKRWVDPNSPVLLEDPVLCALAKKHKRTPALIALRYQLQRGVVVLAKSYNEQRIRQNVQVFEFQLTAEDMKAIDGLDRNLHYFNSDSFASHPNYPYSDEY
- assay.explanation: Inhibition of AKR1C3 in human COLO 205 cells by Cell based AKR activity assay
This section presents compounds with their documented pIC50 values.
For clarity, pIC50 is expressed as the negative log10 of concentration in mol/L.

# example entries with known answers
q: Which pIC50 is listed for COc1cccc(N2CCN(C(=O)c3ccc(S(=O)(=O)n4cncn4)cc3)CC2)c1 ?
a: 6.27

q: What value of pIC50 has been reported for the following compound? COc1ccccc1N1CCN(C(=O)c2ccc(S(=O)(=O)n3cnc(-c4ccc(C(F)(F)F)cc4)n3)cc2)CC1
a: 6.03

q: What does the data say about its pIC50? Entry: COc1ccccc1N1CCN(C(=O)c2ccc(S(=O)(=O)n3cnc(-c4ccc(OC(F)(F)F)cc4)n3)cc2)CC1
a: 5.96

q: # lookup: pIC50 of COc1ccccc1N1CCN(C(=O)c2ccc(S(=O)(=O)n3cnc(-c4ccccc4)n3)cc2)CC1
a: 5.57

q: Any idea what its pIC50 is? The compound is O=C(c1ccc(S(=O)(=O)n2cncn2)cc1)N1CCN(c2ccc(I)cc2)CC1
a: 6.48

Further cases:
q: Data request, read-out pIC50, for COc1ccccc1N1CCN(C(=O)c2ccc(S(=O)(=O)n3cnc(C4CCCC4)n3)cc2)CC1
a: 7.39

q: Which pIC50 is reported for this compound? COc1ccccc1N1CCN(C(=O)c2ccc(S(=O)(=O)n3cnc(C4CCCCC4)n3)cc2)CC1
a: 7.57

q: Item under review: COc1ccccc1N1CCN(C(=O)c2ccc(S(=O)(=O)n3cnc(-c4ccncc4)n3)cc2)CC1 . Reported pIC50?
a: 5.38

q: Which pIC50 value belongs to COc1ccccc1NC1CCN(C(=O)c2ccc(S(=O)(=O)n3cncn3)cc2)CC1 ?
a: 5.33

q: Query (compound): COc1ccccc1-c1ccc(NC(=O)c2ccc(S(=O)(=O)n3cncn3)cc2)cc1 ; field requested: pIC50
a: 5.06

q: Tell me the measured pIC50 of COc1ccccc1N1CCN(C(=O)c2ccc(S(=O)(=O)n3cnc(-c4cccnc4)n3)cc2)CC1 , please.
a: 5.15

q: Would you kindly share the measured pIC50 for COc1ccccc1N1CCN(C(=O)c2ccc(S(=O)(=O)n3cnc(-c4ccccc4F)n3)cc2)CC1 ?
a: 5.33

q: Endpoint output: pIC50 of COc1ccccc1N1CCN(C(=O)c2ccc(S(=O)(=O)n3cnc(-c4ccc(Br)cc4)n3)cc2)CC1 . Value?
a: 6.01

q: Consider the compound shown here: COc1ccccc1N1CCN(C(=O)c2ccc(S(=O)(=O)n3cnc(-c4ccco4)n3)cc2)CC1 What is its recorded pIC50?
a: 5.30

q: Query (compound): COc1ccccc1N1CCN(C(=O)c2ccc(S(=O)(=O)n3cnc(C4CC4)n3)cc2)CC1 ; field requested: pIC50
a: 7.06

q: Which pIC50 reading was recorded for the compound COc1ccc(-c2ncn(S(=O)(=O)c3ccc(C(=O)N4CCN(c5ccccc5OC)CC4)cc3)n2)cc1 ?
a: 6.30

q: Value lookup for pIC50; key = COc1ccc(N2CCN(C(=O)c3ccc(S(=O)(=O)n4cncn4)cc3)CC2)cc1
a: 6.02

q: pIC50 for COc1ccccc1N1CCN(C(=O)c2ccc(S(=O)(=O)n3cnc(C4CCC4)n3)cc2)CC1 ?
a: 7.21

q: # lookup: pIC50 of O=C(c1ccc(S(=O)(=O)n2cncn2)cc1)N1CCN(c2ccccn2)CC1
a: 5.59

q: If you can, please state the reported pIC50 value of COc1ccccc1N1CCN(C(=O)c2ccc(S(=O)(=O)n3cnc(-c4ccc(F)cc4)n3)cc2)CC1 .
a: 6.29
